test: AUC (infinity) in rat at 23.7 mg/kg, po and measured up to 24 hrs by LC/MS analysis; type: ADME, organism-based; design: dose 23.7 mg/kg, route oral, time infinity; conditions: in vivo
Property Name: AUC(0-inf) (µM·h)
Record the value in µM·h, omitting the unit from your answer.

Data request: # input compound: C[C@H]1Cc2c([nH]c3cc(Cl)c(F)cc23)[C@@]2(N1)C(=O)Nc1ccc(Cl)cc12 ; wanted: its AUC(0-inf)
Data returned: 524

====

test system: Plasmodium falciparum; experiment: Antimalarial activity against Plasmodium falciparum W2 infected in human erythrocytes assessed as reduction in [3H]-hypoxanthine incorporation incubated for 48 hrs followed by addition of [3H]-hypoxanthine and measured after 24 hrs by liquid scintillation counting method; format: functional, organism-based
pEC50: −log10 of the molar value.
Property Name: pEC50

Data request: # input molecule: C[C@H]1Cc2c([nH]c3cc(Cl)c(F)cc23)[C@@]2(N1)C(=O)Nc1ccc(Cl)cc12 ; wanted: its pEC50
Data returned: 8.85 to 9.30
